TARGET OR TEST SYSTEM: HIV-1 reverse transcriptase (HIV-1, UniProt P04585;P04585 P04585:588-1147,P04585:588-1027)
TEST METHOD NOTES: inhibition; Ki' for RNA-dependent DNA polymerase activity
TEST CONTEXT: tags: overexpressed in E. coli, purified per Davies et al. 1991; label: 5'-32P; intramolecular primer:template junction (3' AGGGG paired with CCCCT)
PARAMETER MEASURED: pKi
pKi (log units): -log10 of the concentration in mol/L.

Query RT10 (ssDNA) DNA: ATCCGCCTGATTAGCGATACTTATTTGCCCTTGCAGGCCGCAGGAGTGCTAGCAGTACTTGAGCAAAATCACCTGCAGGGG yields pKi of 7.21
